# Tested on: Serratia marcescens
# Protocol: In vitro antibacterial activity against Serratia marcescens IFO 3736
# Format: functional
# Condition Context: Serratia marcescens, IFO 3736; read-out: MIC
Quantity Kind: MIC (µg/mL)

INSERT INTO assay_data (compound, meas_value) VALUES
  ('CC1Sc2c(C(=O)O)c(=O)c3cc(F)c(-n4ccnc4)cc3n21 (stereo not given)', 0.78),
  ('CN1CCN(c2cc3c(cc2F)c(=O)c(C(=O)O)c2n3C(c3ccccc3)S2)CC1 (stereo not given)', 0.39),
  ('CC1Sc2c(C(=O)O)c(=O)c3cc(F)c(N4CCCNCC4)cc3n21 (stereo not given)', 0.39),
  ('CN1CCN(c2cc3c(cc2F)c(=O)c(C(=O)O)c2n3CS2)CC1', 0.05),
  ('CC1Sc2c(C(=O)O)c(=O)c3cc(F)c(N4CCN(Cc5ccc(N)cc5)CC4)cc3n21 (stereo not given)', 1.56);

---

# Test system: Micrococcus luteus
# Protocol: In vitro antibacterial activity against Micrococcus luteus ATCC 9341
# Assay type: functional
# Condition Context: Micrococcus luteus, ATCC 9341; read-out: MIC
Here, each record is paired with measured MIC data.
Quantity Kind: MIC (µg/mL)

INSERT INTO assay_data (molecule, meas_value) VALUES
  ('CC1Sc2c(C(=O)O)c(=O)c3cc(F)c(-n4ccnc4)cc3n21 (stereo unspecified)', 6.25),
  ('CC1Sc2c(C(=O)O)c(=O)c3cc(F)c(N4CCN(CCO)CC4)cc3n21 (stereo unspecified)', 0.78),
  ('CC(=O)N1CCN(c2cc3c(cc2F)c(=O)c(C(=O)O)c2n3C(C)S2)CC1 (stereo unspecified)', 3.13),
  ('CN1CCN(c2cc3c(cc2Cl)c(=O)c(C(=O)O)c2n3CS2)CC1', 6.25),
  ('CC1COc2c(N3CCN(C)CC3)c(F)cc3c(=O)c(C(=O)O)cn1c23 (stereo unspecified)', 3.13),
  ('CCN1CCN(c2cc3c(cc2F)c(=O)c(C(=O)O)c2n3C(C)S2)CC1 (stereo unspecified)', 1.56),
  ('CC1Sc2c(C(=O)O)c(=O)c3cc(Cl)c(N4CCNCC4)cc3n21 (stereo unspecified)', 1.56),
  ('CC1Sc2c(C(=O)O)c(=O)c3cc(F)c(N4CCNC(=O)C4)cc3n21 (stereo unspecified)', 3.13),
  ('CC1Sc2c(C(=O)O)c(=O)c3cc(F)c(N4CCSCC4)cc3n21 (stereo unspecified)', 0.78),
  ('CN1CCN(c2cc3c(cc2F)c(=O)c(C(=O)O)c2n3C(c3ccc(F)cc3F)S2)CC1 (stereo unspecified)', 6.25),
  ('CN1CCN(c2cc3c(cc2F)c(=O)c(C(=O)O)c2n3CS2)CC1', 12.5),
  ('CC1Sc2c(C(=O)O)c(=O)c3cc(F)c(N4CCCNCC4)cc3n21 (stereo unspecified)', 3.13),
  ('O=C(O)c1c2n(c3cc(N4CCNCC4)c(F)cc3c1=O)C(c1ccccc1)S2 (stereo unspecified)', 3.13),
  ('O=C(O)c1c2n(c3cc(N4CCNCC4)c(F)cc3c1=O)C(c1ccccc1F)S2 (stereo unspecified)', 12.5),
  ('O=C(O)c1c2n(c3cc(N4CCNCC4)c(F)cc3c1=O)C(c1ccc(F)cc1)S2 (stereo unspecified)', 1.56),
  ('C=CCN1CCN(c2cc3c(cc2F)c(=O)c(C(=O)O)c2n3C(C)S2)CC1 (stereo unspecified)', 1.56),
  ('CN1CCN(c2cc3c(cc2F)c(=O)c(C(=O)O)c2n3C(c3ccccc3)S2)CC1 (stereo unspecified)', 6.25),
  ('CC1Sc2c(C(=O)O)c(=O)c3cc(F)c(N4CCN(c5ccccc5)CC4)cc3n21 (stereo unspecified)', 12.5),
  ('CC1Sc2c(C(=O)O)c(=O)c3cc(Cl)c(N4CCN(C)CC4)cc3n21 (stereo unspecified)', 3.13),
  ('CC(C)N1CCN(c2cc3c(cc2F)c(=O)c(C(=O)O)c2n3C(C)S2)CC1 (stereo unspecified)', 3.13),
  ('CC1Sc2c(C(=O)O)c(=O)c3cc(F)c(N4CCN(C)CC4)cc3n21 (stereo unspecified)', 1.56);
